The entries below come with measured Kd values attached.
Target: T1, 10E8-GT12 (synthetic construct; HIV-1 MPER helix …, N-linked glycan density at N74/75)
T1 construct: also called MPER-GT immunogen
T1 chain: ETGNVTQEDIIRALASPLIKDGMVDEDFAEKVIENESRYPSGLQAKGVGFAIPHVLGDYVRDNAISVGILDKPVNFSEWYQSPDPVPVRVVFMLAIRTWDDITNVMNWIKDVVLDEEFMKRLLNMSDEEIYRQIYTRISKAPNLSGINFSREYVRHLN
Assay: SPR
Settings: both partners purified

BINDER: SA684_Exp1_Scaf_MPER-GT12v56_W6-10 (Fab, V domains shown, also called off-target mouse Fab W6-10; source: FreeStyle 293F cells, transfected, purified) VH: QVTLKESGPGILQPSQTLSLTCSFSGFSLSTFGMGVGWIRQPSGKGLEWLAHIWWDDDKFYNPALKSRLTISKDTSKNQVFLKIANVDTADTATYYCARIGEDYFLDVWGKGTTVTVSS VL: DIQMTQSPASLSASVGETVTITCRASGNIHNYLAWYQQKQGKSPQLLVYNAKTLADGVPSRFSGSGSGTQYSLKINSLQPEDFGSYYCQHFWSAPYTFGGGTNLEIK
READOUT_UNITS: nM
Kd: 1.8

BINDER: SA684_Exp1_Scaf_MPER-GT10v55_W6-03 (Fab, V domains shown, source: FreeStyle 293F cells, transfected, purified) VH: DVQLQESGPGLVKPSQSLSLTCSVTGYSITSGYYWNWIRQFPGNKLEWMGYISYDGSNNYNPSLKNRISITRDTSQNQFFLKLNSVTTEDTASYYCAREGPYYDFWSGYYAYYMDVWGKGTTVTVSS VL: DIVMSQSPSSLAVSVGEKVTMSCKSSQSLLYSSNQKNYLAWYQQKPGQSPKLLIYWASTRKSGVPDRFTGSGSGTDFTLTISSVKAEDLAVYYCQQYFGYPLTFGAGTKLELK
READOUT_UNITS: nM
Kd: 8.5

BINDER: NHP-10E8_MPER-GT10v55_W3-02 (Fab, V domains shown, source: FreeStyle 293F cells, transfected, purified) VH: EVQLVESGGGLVQPGGSLKLSCAASGFTFSDHYMDWVRQAPGKGLEWVSSVSSGSGSATLYPDSVKGRFTISRDNAKNTVYLQMNSLRAEDTAVYYCARRGLYYDFWSGYSDFYYGLDSWGQGVVVTVSS VL: DIVMTQTPLSLPITPGEPASISCRSSQSLLQSNGNTYLHWYLQKPGQSPQLLIYGGSNRASGVPDRFSGSGSGTDFTLKISKVEAEDVGVYYCVQAIAFPFTFGPGTKLDIK
READOUT_UNITS: nM
Kd: 3400

BINDER: NHP-10E8_MPER-GT10v55_W3-05 (Fab, V domains shown, source: FreeStyle 293F cells, transfected, purified) VH: EVQLVESGGGLVQPGGSLRLSCAASGFTFSNYWMSWVRQAPGKGLEWVGFIKNKADGGTAAYAESVKGRFTISRDDSKNTLYLQMNSLKTEDTAVYYCARDLGRYNFWSGFYSQNRFDVWGPGVLVTVSS VL: SYEVTQPPSVSVSPGQMARITCGGDNLGSKYVHWYQQKPAQAPVLVIYDDSERPSGIPERFSGSKSGNTATLTISGVEAGDEADYYCQVWDSSSDHPLFGGGTRLTVL
READOUT_UNITS: nM
Kd: 490
